System: MS2 coat protein
Experiment: apparent KD of MS2 coat protein; designed switch direction (-1 OFF switch, 1 ON switch): -1; higher = weaker reporter binding
Details: input ligand: none
Give measured apparent KD of MS2 coat protein for each item. Keep answers brief.
One number for each entry, in nM.

Past entries and their recorded results:
| sequence-code | apparent KD of MS2 coat protein (nM) |
| --- | --- |
| UAUACCACAGUUAGGAUAUUCUAAGUAGUAGCUAAGAAGAAGGAACAUGAGGAUCACCCAUGUGGAGCCAGCGU [Eternabot (L1) Solution 99] (Eterna round: R97, puzzle: Brourd's mod of Exclusion 4) | 18.1 |
| GGUUGGCGAGGAUAUACAUGAGGAUCACCCAUGUGGUCCUGUGGCUGAUCAAGCCUAUGUAGAAGGCGCAAAUC [salish99_ex3_r4_012] (Eterna round: R97, puzzle: Exclusion 3) | 257 |
| CUAAAUCAUGUAGGAUAUGCGUGGCGAAGCUAUGCAGAAGGACAUGAGGAUCACCCAUGUCUUUCCGUCUGCGUACAGACGGGA [JL ENG1 1.20] (Eterna round: R96, puzzle: Exclusion NG 1) | 21.2 |
| GCAUGUCAGUAGGAUAUGCAGCACUUGAUACCUGCAGAAGGACUGACAUGAGGAUCACCCAUGUCUCGGGUGCU [EX6 A.10] (Eterna round: R97, puzzle: Exclusion 6) | 149 |
| CAAAGUUGGUAAGGAUAUCCCACAUUAUUCUGACCCGUGCAAGCUACAUGAGGAUCACCCAUGUGGGAGAAGGUGCGUUAAAGA [Design 1] (Eterna round: R96, puzzle: Exclusion NG 2) | 94.3 |

Each sequence below has a reported value. Please supply its apparent KD of MS2 coat protein.
1. GGUUAGGCAGGAUAUACCCACAGUGUCUGUAGAAUCGCAAGACAUGAGGAUCACCCAUGUAGAAGGGCCGACCG [Eternabot (L1) Solution 1] (Eterna round: R97, puzzle: Exclusion 2)
2. UACAUGAGGAUCACCCAUGUUUUGUCGUGUAUGGUAUUUAUCUAGGAUAUCAAUUUGUUUAAUUAUGAGAAGGAGAAUAUUAAU [JMF's solution 70] (Eterna round: R96, puzzle: Exclusion NG 3)
3. UUUUUAGAUGAAGGAUAUACUUAACAUGAGGAUCACCCAUGUGGUGUUGUGAGUGAGUGAGUUUAGUAGAAGGUCAAUGAUUUU [JMF's solution 66] (Eterna round: R96, puzzle: Exclusion NG 2)

**Result**
273
35.6
377

**Query** GET /values?readout=apparent KD of MS2 coat protein&item= GUCCCACAUGAGGAUCACCCAUGUGAGGAUAUGGUUUCGCUGGCCGUAGCCAGUGGAACCAGAAGGCGCGUGAU [Mat - Exclusion 1 - JL Mod - D17] (Eterna round: R97, puzzle: Exclusion 1)
**Result** 74.7

Cited source: the supplement of paper PMC9170038
